- System: HT29 colon
- METHOD_DESCRIPTION: NCI-60 one-dose screen, 48 h (100 = growth as untreated, 0 = no growth, -100 = all killed)
- RUN_PARAMETERS: 10 µM unless noted
Compounds without any hit were thinned out: in the full panel of roughly 83,000, 20% have a hit.
ENDPOINT_NAME: growth (%)
Answers are plain numbers, in %.

- OC1COC(OCc2ccccc2)C(O)C1O (configuration not stated): 111
- Oc1ccc(Cc2ccccc2Cl)c(O)c1: 106
- Cc1cc(-c2ccc(N=Nc3ccc4c(S(=O)(=O)O)cc(S(=O)(=O)O)c(N)c4c3O)c(C)c2)ccc1N=Nc1ccc2c(S(=O)(=O)O)cc(S(=O)(=O)O)c(N)c2c1O: 83.6
- c1ccc2c(c1)OC1OC2Oc2ccccc21: 95.6
- C#CCOC(=O)Nc1ccccc1: 112

Respectfully, I request growth for each entry included below.
1. CCN(CCNS(C)(=O)=O)c1ccc(N)c(C)c1
2. Nc1ncnc2c1ncn2C1OC(COP(=O)(O)O)C(O)C1O (configuration not stated)
3. O=C1OC(c2ccccc2)=N/C1=C\c1ccccc1

RESULT:
1: 87.8; 2: 114; 3: 113
